Entries and their pIC50 values follow.
- assay_target: Human immunodeficiency virus type 1 reverse transcriptase (Human immunodeficiency virus 1, UniProt Q72547)
pIC50: −log10 of the molar value.
metric_name: pIC50

INSERT INTO results (chemical_smiles, result) VALUES
  ('O=C(O)CCCC(=O)Nc1cc(S(=O)(=O)O)cc2cc(S(=O)(=O)O)cc(O)c12', '< 3.00'),
  ('CC(=O)Oc1cc(S(=O)(=O)O)cc2cc(S(=O)(=O)O)cc(OC(C)=O)c12', '< 3.00'),
  ('CC(=O)Nc1cc(S(=O)(=O)O)cc2cc(S(=O)(=O)O)cc(OC(C)=O)c12', '< 3.00'),
  ('Nc1c(S(=O)(=O)O)cc2cc(S(=O)(=O)O)cc(O)c2c1O', 3.79),
  ('CC(=O)Nc1cc(S(=O)(=O)O)cc2cc(S(=O)(=O)O)cc(S(=O)(=O)O)c12', '< 3.00'),
  ('O=C(Nc1cc(S(=O)(=O)O)cc2cc(S(=O)(=O)O)cc(O)c12)c1ccccc1', 3.33),
  ('Nc1cc(S(=O)(=O)O)cc2cc(S(=O)(=O)O)cc(O)c12', '< 3.00'),
  ('O=C(O)c1cc(NS(=O)(=O)c2ccc(-c3ccc(S(=O)(=O)Nc4cc(C(=O)O)c(O)c(S(=O)(=O)O)c4)cc3)cc2)cc(S(=O)(=O)O)c1O', 3.37),
  ('COc1cc(S(=O)(=O)O)cc2cc(S(=O)(=O)O)cc(N(C)C)c12', '< 3.00');
